Molecular target: BIR3 domain of human XIAP (residues 252-350) (Homo sapiens (Human))
Sequence (P98170 252-350): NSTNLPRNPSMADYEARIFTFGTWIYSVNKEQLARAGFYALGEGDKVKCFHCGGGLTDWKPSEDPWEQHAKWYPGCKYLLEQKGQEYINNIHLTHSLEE
Assay: XIAP in vitro competitive displacement binding assay (fluorescence polarization)
Conditions: read-out: IC50 or PI Xiap: IC50
Where a name gives a salt, the structure may show the parent alone.
Each entry below carries its reported log10 IC50.
Plainly stated, the numbers are log10 of IC50 given in nM.

Solved entries:
[[record]]
molecule = "COC[C@H]1CN[C@H](C)CN1CC(=O)N1CC(C)(C)c2ccc(S(=O)(=O)NC(C)C)cc21 [Example 69, dihydrochloride salt]"
quantity_measured = "log10 IC50"
value_observed = 2.45

[[record]]
molecule = "C[C@@H]1CN(CC(=O)N2CC(C)(C)c3ncc(C(=O)c4ccccc4)cc32)[C@@H](CN2CCCC2=O)CN1 [Example 187, dihydrochloride]"
quantity_measured = "log10 IC50"
value_observed = 2.04

[[record]]
molecule = "CC(=O)NC[C@H]1CN[C@H](C)CN1CC(=O)N1CC(C)(C)c2ccc(Cl)cc21 [Example 45, hydrochloride salt]"
quantity_measured = "log10 IC50"
value_observed = 3.04

[[record]]
molecule = "C[C@@H]1CN(CC(=O)N2CC(C)(C)c3cnc(Cc4ccccc4)cc32)[C@@H](C(=O)N2CCCC2)CN1 [Example 131, dihydrochloride]"
quantity_measured = "log10 IC50"
value_observed = 2.11

[[record]]
molecule = "COC[C@H]1CN[C@H](C)CN1CC(=O)N1CC(C)(C)c2cnc(Cc3ccccc3Cl)cc21 [Example 78, hydrochloride salt]"
quantity_measured = "log10 IC50"
value_observed = 2.72


Query: What value of log10 IC50 has been recorded for this entry: COC[C@H]1CN[C@H](C)CN1CC(=O)N1CC(C)(c2ccccn2)c2ccc(Cc3ccccc3)cc21 (stereo partly shown) [Example 144, hydrochloride]
Response: 2.38

Query: What value of log10 IC50 has been recorded for this entry: C[C@@H]1CN(CC(=O)N2CCc3ccc(C(=O)N(C)C)cc32)CCN1
Response: 5.04

----------
Target: BIR3 domain of human cIAP-1 (residues 267-363) (Homo sapiens (Human), UniProt Q13490)
Sequence (Q13490 267-363): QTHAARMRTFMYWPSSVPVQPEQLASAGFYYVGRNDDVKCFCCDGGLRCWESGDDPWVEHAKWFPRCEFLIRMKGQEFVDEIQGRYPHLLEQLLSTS
Experiment: cIAP-1 in vitro competitive displacement binding assay (fluorescence polarization; Probe A AVPIK(5&6FAM)-amide or Probe B AbuRPFK(5&6FAM)-amide)
Conditions: read-out: IC50 or PI cIAP1: IC50
Where a name gives a salt, the structure may show the parent alone.
Class field: derived from IC50; ranges band A: < 40 nM; band B: ≥ 40 nM and < 900 nM; band C: ≥ 900 nM

[[record]]
compound = "COC[C@H]1CN[C@H](C)CN1CC(=O)N1CC(C)(C)c2ccc(S(=O)(=O)N(C)C)cc21 [Example 68, dihydrochloride salt]"
group_label = "band C"

[[record]]
compound = "C[C@@H]1CN(CC(=O)N2CC(C)(C)c3cc(F)c(S(=O)(=O)C4CC4)cc32)CCN1 [Example 57, dihydrochloride salt]"
group_label = "band C"

[[record]]
compound = "C[C@@H]1CN(CC(=O)N2CCc3ccc(N(C)c4ccccc4)cc32)CCN1 [Example 2, Trifluoroacetate salt]"
group_label = "band C"


Query: Hello team, could you let me know which band the following compound falls into: C[C@@H]1CN(CC(=O)N2CC(C)(C)c3cnc(Oc4ccccc4Cl)cc32)[C@@H](C(=O)N(C)C)CN1 [Example 151, dihydrochloride]
Response: band A

Query: Hello team, could you let me know which band the following compound falls into: COC[C@H]1CN[C@H](C)CN1CC(=O)N1CC(C)(C)c2cnc(C#N)cc21 [Example 103]
Response: band B

Query: Hello team, could you let me know which band the following compound falls into: COC[C@H]1CN[C@H](C)CN1CC(=O)N1CC(C)(C)c2cnc(CC3CCCCC3)cc21 [Example 79]
Response: band A

Query: Hello team, could you let me know which band the following compound falls into: COC[C@H]1CN[C@H](C)CN1CC(=O)N1CC(C)(C)c2cnc(C(C)(F)F)cc21 [Example 181, dihydrochloride]
Response: band B

Query: Hello team, could you let me know which band the following compound falls into: C[C@@H]1CN(CC(=O)N2CC(C)(C)c3ncc(C(C)(F)F)cc32)[C@@H](CN2CCN(C)C(=O)C2)CN1 [Example 228, dihydrochloride]
Response: band A
